The measurements presented in this section are drawn from patent US20190106487A1.

Listing of recorded functional reporter gene assay (% inhibition), 5 µg/mL mAb by entry.
target desc: T1, human IL-1RAcP on 293T/17-FR cells (human, UniProt Q9NPH3 21-570)
T1 sequence (looked up): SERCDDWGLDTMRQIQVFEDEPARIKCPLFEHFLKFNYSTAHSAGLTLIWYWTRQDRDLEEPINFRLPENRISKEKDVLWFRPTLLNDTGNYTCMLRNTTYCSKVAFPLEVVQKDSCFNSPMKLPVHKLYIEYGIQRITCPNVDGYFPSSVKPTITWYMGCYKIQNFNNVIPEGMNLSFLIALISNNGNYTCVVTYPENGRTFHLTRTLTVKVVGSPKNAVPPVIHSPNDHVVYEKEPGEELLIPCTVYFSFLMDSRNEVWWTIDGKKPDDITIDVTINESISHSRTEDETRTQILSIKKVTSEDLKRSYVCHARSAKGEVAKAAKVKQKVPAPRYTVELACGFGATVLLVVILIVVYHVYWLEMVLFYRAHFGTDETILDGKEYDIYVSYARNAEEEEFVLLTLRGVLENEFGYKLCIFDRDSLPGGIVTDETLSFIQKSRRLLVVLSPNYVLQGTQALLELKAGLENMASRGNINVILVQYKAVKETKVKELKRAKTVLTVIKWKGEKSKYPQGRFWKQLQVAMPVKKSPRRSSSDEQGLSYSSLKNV
assay method text: cell-based or functional assay
Quick reminder: number only, in %, skip the unit.

binder="P013.S.02.B.C01 (antibody, V domains shown, rabbit monoclonal antibody; also called P013.A.00109.C12) VH: QSVEESGGRLVTPGGSLTLTCTVSGFSLSVYAMGWFRQAPGKGLEWIGDIYTGSGSTWYASWAKGRFTISKTSTTVDLKITSPTTEDTATYFCAREIDAGYVGYGFNLWGQGTLVTVSS VL: AQALTQTPSSVSAAVGGTVTINCQSSQSVYSDYLVWYQQKPGQPPKLLIYQASKLASGVPSRFKGSGSGTQFTLTISGVQSDDAATYYCQATYSSTGWYRAFGGGTEVVVK" value_observed=96

Next, consider the following binder.
Record summary for P013.S.02.B.G03 (antibody, V domains shown, rabbit monoclonal antibody; also called P013.A.00014.D07) VH: QSVEESGGRLVTPGTPLTLTCTVSGFSLSSYGMIWVRQAPGEGLEWIGFIGRGGATWYASWVKGRFTISKTSTTVDLKITSPTASDTATYFCARDGDSSDYYAFNLWGQGTLVTVSS VL: DVVMTQTPASVSEPVGGTVTIKCQASQNIGSNLAWYQQRSGQPPKLLIYGASTLASGVPSRFSGSGSGTEFTLTISGVQSADAATYFCQCSGYDITGVFPFGGGSEVVVK : reported functional reporter gene assay (% inhibition), 5 µg/mL mAb = 17
